Target Under Test: amylin receptor (nucleus accumbens membranes prepared from rat brain) (rat, UniProt P32214 25-516)
Sequence (P32214 25-516): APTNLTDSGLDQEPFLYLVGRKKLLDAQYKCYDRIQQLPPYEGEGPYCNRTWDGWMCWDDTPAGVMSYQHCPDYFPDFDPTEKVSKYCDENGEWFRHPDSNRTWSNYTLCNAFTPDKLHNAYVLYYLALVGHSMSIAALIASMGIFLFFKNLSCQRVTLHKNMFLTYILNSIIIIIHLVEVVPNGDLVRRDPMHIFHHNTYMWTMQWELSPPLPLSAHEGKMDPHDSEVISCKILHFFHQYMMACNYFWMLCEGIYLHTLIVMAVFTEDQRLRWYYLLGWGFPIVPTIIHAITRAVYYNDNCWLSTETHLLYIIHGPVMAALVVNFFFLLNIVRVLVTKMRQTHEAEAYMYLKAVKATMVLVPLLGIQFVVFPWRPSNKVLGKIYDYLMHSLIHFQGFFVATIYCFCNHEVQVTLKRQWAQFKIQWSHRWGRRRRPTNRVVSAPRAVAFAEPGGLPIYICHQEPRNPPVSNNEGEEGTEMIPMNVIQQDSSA
Protocol: radioligand displacement, 125I-rat amylin, rat nucleus accumbens membranes
Ends that are not written are not given here.
Kindly state pIC50 for each of the entries shown.
As a rule, pIC50 stands for the negative log10 of the concentration, concentration in M.

Value of pIC50 reported for the binder VGCVLGTCQVQNLSHRLWQLMGPAGRQDSAPVEPSSPHSY-NH2 (ends and bridges not checked) [AFP-6 analog SEQ ID NO: 35] is 7.77

Value of pIC50 reported for the binder VGCVLGTCQVQNLSHRLWQLRQDSAPVEPSSPHSY-NH2 (ends and bridges not checked) [AFP-6 analog SEQ ID NO: 36] is 7.41

Value of pIC50 reported for the binder GCVLGTCQVQNLSHRLWQLMGPAGRQDSAPVDPSSPHSY-NH2 (ends and bridges not checked) [AFP-6 analog SEQ ID NO: 11] is 8.11
